The compounds listed here are annotated with their GI50.
# System: KM12
# PROTOCOL SUMMARY: NCI tumour cell line growth inhibition, 48 h
Calls of active or inactive are those of the source. Cut-off read from the data, not from the text of the source: active = GI50 up to about 1.1 µM and inactive = higher.

Worked examples, 5 compounds total:
• CC(=O)Oc1ccc2oc(=O)cc(C)c2c1 = > 100 µM (inactive)
• COc1cc(C2C(C(=O)Nc3ccccc3)=C(C)NC(C)=C2C(=O)Nc2ccccc2)ccc1O = 31 µM (inactive)
• NC(=O)c1cc2ccccc2c(/N=N/c2ccccc2)c1O = 28.6 µM (inactive)
• O=C1N=C(c2ccccc2)O/C1=C\c1ccccc1 = > 100 µM (inactive)
• NS(=O)(=O)c1nnc(NC(=O)c2ccccc2)s1 = > 100 µM (inactive)

Fill in: GI50 of Cc1ccc(Cc2n[nH]c(=O)n2-c2ccccc2)cc1 is ___ > 100 µM (inactive)

Next entry: CN(C)C(=O)Oc1ccc[n+](C)c1 [PYRIDOSTIGMINE BROMIDE] > 100 µM (inactive)

Next entry: c1ccc2c(c1)CCN2CCN1CCc2ccccc21 > 10 µM (inactive)

----------
# System: SNB-19
# PROTOCOL SUMMARY: NCI tumour cell line growth inhibition, 48 h
Active and inactive are the calls of the source. Rule as the data show it: active = GI50 up to about 1.1 µM and inactive = higher.
MEASURED PROPERTY: GI50

Worked examples, 3 compounds total:
* O=C1CC(c2ccccc2)NCCCCN2CC(CN1)C(C(O)c1ccccc1)C2=O (stereo unspecified) | > 100 µM (inactive)
* CN(CC#N)C(=O)Cc1ccc([N+](=O)[O-])cc1 | > 10 µM (inactive)
* O=C(O)c1ccc([I+]c2ccccc2)cc1 | > 100 µM (inactive)

Fill in: GI50 of Nc1ncnc2c1ncn2C1OC(COP(=O)(O)CP(=O)(O)O)C(O)C1O (stereo unspecified) is ___ > 100 µM (inactive)

Next entry: O=C1c2ccccc2CC12CCC1(CC2)OCCO1 > 100 µM (inactive)

Next entry: COc1cccc(-c2c(C#N)c(N)nc3c2CCS(=O)(=O)c2ccc(C)cc2-3)c1 56.2 µM (inactive)

Next entry: O=C1C=CC(=O)c2cc(Sc3ccccc3)c(=O)c(Sc3ccccc3)cc21 > 100 µM (inactive)

Next entry: CCOC(=O)C(Cc1c2ccccc2cc2ccccc12)(NC(C)=O)C(=O)OCC > 78.5 µM (inactive)

Next entry: N#Cc1c(-c2ccc([N+](=O)[O-])cc2)cc(-c2ccc(Nc3ccnc4cc(Cl)ccc34)cc2)[nH]c1=O 63.8 µM (inactive)

----------
# Test system: SF-539
# PROTOCOL SUMMARY: NCI tumour cell line growth inhibition, 48 h
Calls of active or inactive are those of the source. Rule as the data show it: active = GI50 up to about 1.1 µM and inactive = higher.
MEASURED PROPERTY: GI50

* C[C@H]1ON2CCC[C@@H]2[C@@H]1C(=O)N1C2CC3CCC2(CS1(=O)=O)C3(C)C (some centres not stated) | > 100 µM (inactive)

Fill in: GI50 of Cn1cc(C=C(C#N)C#N)c(=O)n(C)c1=O is ___ > 100 µM (inactive)

----------
# System: SF-539
# PROTOCOL SUMMARY: NCI tumour cell line growth inhibition, 48 h
Calls of active or inactive are those of the source. No stated cut-off is given here; in the data, active = GI50 up to about 1.1 µM and inactive = higher.
MEASURED PROPERTY: GI50

* Cc1ccc(Cc2n[nH]c(=O)n2-c2ccccc2)cc1 | > 100 µM (inactive)

Fill in: GI50 of c1ccc2c(c1)CCN2CCN1CCc2ccccc21 is ___ > 10 µM (inactive)

Next entry: Cn1c2ccccc2c(=O)c2c(O)cc3c(c21)CC(C1(C)CO1)O3 (configuration not stated) 3.2 µM (inactive)

Next entry: Cc1cc2c(C(C)C)c(O)c(O)c(/C=N\CCO)c2c(O)c1-c1c(C)cc2c(C(C)C)c(O)c(O)c(/C=N/CCO)c2c1O 2.54 µM (inactive)

----------
# System: SNB-19
# PROTOCOL SUMMARY: NCI tumour cell line growth inhibition, 48 h
Active and inactive are the calls of the source. Rule as the data show it: active = GI50 up to about 1.1 µM and inactive = higher.
MEASURED PROPERTY: GI50

Worked examples, 10 compounds total:
- CCOc1ccc(NC(=O)CC2C(=O)Nc3ccccc3[S+]2[O-])cc1 (configuration not stated): 59.6 µM (inactive)
- COc1ccccc1-c1cc(O)c2cc(C)cnc2n1: 71.9 µM (inactive)
- NC(=O)C(=O)n1ncc(Cl)c(Cl)c1=O: > 79.3 µM (inactive)
- NCCCCCC(CCN)SCC1OC(n2cnc3c(N)ncnc32)C(O)C1O (configuration not stated): 615 µM (inactive)
- CC(=O)c1c[nH]cc1CO: > 10 µM (inactive)
- c1ccc2c(c1)Sc1nccc3ccnc-2c13: 20.7 µM (inactive)
- COc1nc2c(c(O)c(C)c(=O)n2OC2OCC(OC(C)=O)C(OC(C)=O)C2OC(C)=O)c(=O)n1C (configuration not stated): > 100 µM (inactive)
- CCCc1nnc2sc(COc3ccc(OCc4nn5c(CCC)nnc5s4)c(Cl)c3)nn12: 33.8 µM (inactive)
- C[N+](C)(C)c1ncnc2c1ncn2C1CCCO1 (configuration not stated): > 100 µM (inactive)
- CC(C)(C)[Si](C)(C)O/N=C\c1ccc(O[Si](C)(C)C(C)(C)C)cc1: 72.4 µM (inactive)

Fill in: GI50 of Cc1cc2c(C(C)C)c(O)c(O)c(/C=N\CCO)c2c(O)c1-c1c(C)cc2c(C(C)C)c(O)c(O)c(/C=N/CCO)c2c1O is ___ 2.05 µM (inactive)

Next entry: Cc1nc(C)c(N2CCN([N+](=O)[O-])CC2)c(O)n1 > 100 µM (inactive)

----------
The compounds listed here are annotated with their GI50.
# Test system: SF-539
# PROTOCOL SUMMARY: NCI tumour cell line growth inhibition, 48 h
Activity calls are given as the source filed them. Rule as the data show it: active = GI50 up to about 1.1 µM and inactive = higher.

Worked examples, 4 compounds total:
* COC(=O)/C(C#N)=C1\CCC(C(=O)OC)N1C (stereo not given) | > 100 µM (inactive)
* CCOC(=O)C(C)c1nc2cc3cccnc3c(Cl)c2[nH]c1=O (stereo not given) | > 100 µM (inactive)
* O=C1CSC(/C(=C/c2ccccc2)c2nc3ccccc3[nH]2)=N1 | 23.6 µM (inactive)
* O=NN(CC1(O)OCC(O)C(O)C1O)C(Cc1c[nH]c2ccccc12)C(=O)O (stereo not given) | > 100 µM (inactive)

Report GI50 for CCCCCCCCCCCCNC(=O)NCC(OCC)OCC tested on SF-539. > 10 µM (inactive)

----------
The compounds listed here are annotated with their GI50.
# Test system: SF-539
# PROTOCOL SUMMARY: NCI tumour cell line growth inhibition, 48 h
Activity calls are given as the source filed them. No stated cut-off is given here; in the data, active = GI50 up to about 1.1 µM and inactive = higher.

Fill in: GI50 of COc1ccc(C(=O)C/C(=N/NC(N)=S)C(=O)Nc2ccccc2)cc1 is ___ > 100 µM (inactive)

Next entry: CCOC(=O)C(NC(=O)CC(C)C)(NC(C)C)C(F)(F)F (stereo not drawn) > 100 µM (inactive)

Next entry: CCOc1ccc(/N=N/c2ccc3oc(=O)c(/C(C)=N/NC(=O)CC(=O)Nc4cccc(OC)c4)cc3c2)cc1 17.2 µM (inactive)
